Tested on: Gossypium hirsutum
Protocol: Post-emergence phytotoxicity against Gossypium hirsutum (cotton) assessed as mortality at 1.6 g a.i/10 a applied 11 days after germination as foliar spray
Assay type: organism-based
Cond: in vivo, other, 264 h
Observation Type: Activity

Use the examples below as a reference point.
# lookup: Activity of COc1cc(OC)nc(Oc2cccc(C)c2C(=O)O)n1
Non-toxic

# lookup: Activity of COc1cc(OC)nc(Oc2ccccc2C(=O)O)n1
Toxic

# lookup: Activity of COc1cc(OC)nc(Oc2cccc(Br)c2C(=O)O)n1
Toxic

# lookup: Activity of CCSc1cccc(Sc2nc(OC)cc(OC)n2)c1C(=O)O
Non-toxic

# lookup: Activity of COc1cc(OC)nc(Oc2cccc(I)c2C(=O)O)n1
Toxic

Here is the next item to consider.
# lookup: Activity of COc1cc(OC)nc(Sc2cccc([N+](=O)[O-])c2C(=O)O)n1
Non-toxic
